Give measured mortality at 0.05 µg/cm2 for each item. Keep answers brief.
Tested on: Beet Armyworm (Spodoptera exigua, LAPHEG) second instar larvae
Test: Bioassay on Beet Armyworm (BAW), 128-well diet tray assay
Format: in vivo
Details: 0.05 μg/cm^2 on artificial diet, read-out: Percent control (or mortality) BAW
Experimental: Certain molecules disclosed in this document were tested against BAW, CEW, and CL using procedures described in the following examples. In the reporting of the results, the “BAW, CEW, & CL Rating Table” was used (See Table Section). […]
Answers are plain numbers, in %.

A selection of reference data follows.
molecule="Cc1cc(/C(F)=C/C(c2cc(Cl)c(Cl)c(Cl)c2)C(F)(F)F)ccc1C(=O)N[C@H](C)NC(=O)CC(F)(F)F (stereo partly shown)" property_label="mortality at 0.05 µg/cm2" data_value=88
molecule="C[C@H](NC(=O)CC(F)(F)F)NC(=O)c1ccc(/C(F)=C/C(c2cc(Cl)c(Cl)c(Cl)c2)C(F)(F)F)cc1Br (stereo partly shown)" property_label="mortality at 0.05 µg/cm2" data_value=100
molecule="C[C@H](NC(=O)CC(F)(F)F)NC(=O)c1ccc(/C(F)=C/C(c2cc(Cl)c(Cl)c(Cl)c2)C(F)(F)F)cc1C(F)(F)F (stereo partly shown)" property_label="mortality at 0.05 µg/cm2" data_value=100

Please look up its mortality at 0.05 µg/cm2: C[C@H](NC(=O)CCC(F)(F)F)NC(=O)c1ccc(/C(F)=C/C(c2cc(Cl)c(Cl)c(Cl)c2)C(F)(F)F)cc1Cl (stereo partly shown)
100

* * *

Assign mortality at 0.05 µg/cm2 to each entry below.
Test system: Beet Armyworm (Spodoptera exigua, LAPHEG) second instar larvae
Experiment: Bioassay on Beet Armyworm (BAW), 128-well diet tray assay
Format: in vivo
Conditions: 0.05 μg/cm^2 on artificial diet, read-out: Percent control (or mortality) BAW
Give bare numbers, in %.

compound="C[C@H](NC(=O)CCC(F)(F)F)NC(=O)c1ccc(/C(F)=C/C(c2cc(Cl)c(Cl)c(Cl)c2)C(F)(F)F)cc1C(F)(F)F (stereo partly drawn)" property_label="mortality at 0.05 µg/cm2" data_value=100
compound="C[C@H](NC(=O)CCC(F)(F)F)NC(=O)c1ccc(/C(F)=C/C(c2cc(Cl)c(Cl)c(Cl)c2)C(F)(F)F)cc1 (stereo partly drawn) [FC2, reference compound]" property_label="mortality at 0.05 µg/cm2" data_value=0
compound="C[C@H](NC(=O)CCC(F)(F)F)NC(=O)c1ccc(/C(F)=C/C(c2cc(Cl)c(Cl)c(Cl)c2)C(F)(F)F)cc1Br (stereo partly drawn)" property_label="mortality at 0.05 µg/cm2" data_value=100
compound="C[C@H](NC(=O)CC(F)(F)F)NC(=O)c1ccc(/C(F)=C/C(c2cc(Cl)c(Cl)c(Cl)c2)C(F)(F)F)cc1 (stereo partly drawn) [FC1, reference compound]" property_label="mortality at 0.05 µg/cm2" data_value=0
compound="C[C@H](NC(=O)CC(F)(F)F)NC(=O)c1ccc(/C(F)=C/C(c2cc(Cl)c(Cl)c(Cl)c2)C(F)(F)F)cc1Cl (stereo partly drawn)" property_label="mortality at 0.05 µg/cm2" data_value=79

Form field: reported mortality at 0.05 µg/cm2 of Cc1cc(/C(F)=C/C(c2cc(Cl)c(Cl)c(Cl)c2)C(F)(F)F)ccc1C(=O)N[C@H](C)NC(=O)CCC(F)(F)F (stereo partly drawn)
100
